Assay read-out MIC; system under study: Staphylococcus aureus 1061.
measuredParameter: MIC (µg/mL)

Example results:
# molecule, recordedNumber
measured = [
    ("CC[C@H]1OC(=O)[C@H](C)[C@@H](O[C@H]2C[C@@](C)(OC)[C@@H](O)[C@H](C)O2)[C@H](C)[C@@H](O[C@@H]2O[C@H](C)C[C@H](N(C)C)[C@H]2O)[C@](C)(O)C[C@@H](C)C(=NOCC2OCCO2)[C@H](C)[C@@H](O)[C@]1(C)O [Example 30]", 0.4),
    ("CC[C@H]1OC(=O)[C@H](C)[C@@H](O[C@H]2C[C@@](C)(OC)[C@@H](O)[C@H](C)O2)[C@H](C)[C@@H](O[C@@H]2O[C@H](C)C[C@H](N(C)C)[C@H]2O)[C@](C)(O)C[C@@H](C)C(=NOCC2CO2)[C@H](C)[C@@H](O)[C@]1(C)O (stereo partly shown) [Example 47]", 0.2),
]

1 = CC[C@H]1OC(=O)[C@H](C)[C@@H](O[C@H]2C[C@@](C)(OC)[C@@H](O)[C@H](C)O2)[C@H](C)[C@@H](O[C@@H]2O[C@H](C)C[C@H](N(C)C)[C@H]2O)[C@](C)(O)C[C@@H](C)C(=NOCOCCN)[C@H](C)[C@@H](O)[C@]1(C)O [Example 24]
2 = CC[C@H]1OC(=O)[C@H](C)[C@@H](O[C@H]2C[C@@](C)(OC)[C@@H](O)[C@H](C)O2)[C@H](C)[C@@H](O[C@@H]2O[C@H](C)C[C@H](N(C)C)[C@H]2O)[C@](C)(O)C[C@@H](C)C(=NOCCN(CC)CC)[C@H](C)[C@@H](O)[C@]1(C)O [Example 31]
Lower MIC: 1 or 2 ? Output the label that corresponds to your choice.
1

----------
Assay read-out MIC; system under study: Streptococcus pyogenes A 561.
measuredParameter: MIC (µg/mL)

# chemicalString, unitString, MIC
data = [
    ("CC[C@H]1OC(=O)[C@H](C)[C@@H](O[C@H]2C[C@@](C)(OC)[C@@H](O)[C@H](C)O2)[C@H](C)[C@@H](O[C@@H]2O[C@H](C)C[C@H](N(C)C)[C@H]2O)[C@](C)(O)C[C@@H](C)C(=NOCOCCN(CC)CC)[C@H](C)[C@@H](O)[C@]1(C)O", "µg/mL", 0.02),
]

P = CC[C@H]1OC(=O)[C@H](C)[C@@H](O[C@H]2C[C@@](C)(OC)[C@@H](O)[C@H](C)O2)[C@H](C)[C@@H](O[C@@H]2O[C@H](C)C[C@H](N(C)C)[C@H]2O)[C@](C)(O)C[C@@H](C)C(=NOCOCCCl)[C@H](C)[C@@H](O)[C@]1(C)O
Q = CC[C@H]1OC(=O)[C@H](C)[C@@H](O[C@H]2C[C@@](C)(OC)[C@@H](O)[C@H](C)O2)[C@H](C)[C@@H](O[C@@H]2O[C@H](C)C[C@H](N(C)C)[C@H]2O)[C@](C)(O)C[C@@H](C)C(=NOCCNC(C)C)[C@H](C)[C@@H](O)[C@]1(C)O
Lower MIC: P or Q ? Output the label that corresponds to your choice.
Q

----------
Assay read-out MIC; system under study: Streptococcus pyogenes A 561.
measuredParameter: MIC (µg/mL)

A = CCOCON=C1[C@H](C)C[C@@](C)(O)[C@H](O[C@@H]2O[C@H](C)C[C@H](N(C)C)[C@H]2O)[C@@H](C)[C@H](O[C@H]2C[C@@](C)(OC)[C@@H](O)[C@H](C)O2)[C@@H](C)C(=O)O[C@H](CC)[C@@](C)(O)[C@H](O)[C@H]1C [Example 20]
B = CCSCCON=C1[C@H](C)C[C@@](C)(O)[C@H](O[C@@H]2O[C@H](C)C[C@H](N(C)C)[C@H]2O)[C@@H](C)[C@H](O[C@H]2C[C@@](C)(OC)[C@@H](O)[C@H](C)O2)[C@@H](C)C(=O)O[C@H](CC)[C@@](C)(O)[C@H](O)[C@H]1C [Example 13]
When their MIC values are compared, which is larger, A or B ? Output the label that corresponds to your choice.
A
